Cited source for all entries: patent US20250340563A1

assayed-system: NLRP3 inflammasome (Homo sapiens, UniProt Q96P20)
Sequence (Q96P20 whole entry): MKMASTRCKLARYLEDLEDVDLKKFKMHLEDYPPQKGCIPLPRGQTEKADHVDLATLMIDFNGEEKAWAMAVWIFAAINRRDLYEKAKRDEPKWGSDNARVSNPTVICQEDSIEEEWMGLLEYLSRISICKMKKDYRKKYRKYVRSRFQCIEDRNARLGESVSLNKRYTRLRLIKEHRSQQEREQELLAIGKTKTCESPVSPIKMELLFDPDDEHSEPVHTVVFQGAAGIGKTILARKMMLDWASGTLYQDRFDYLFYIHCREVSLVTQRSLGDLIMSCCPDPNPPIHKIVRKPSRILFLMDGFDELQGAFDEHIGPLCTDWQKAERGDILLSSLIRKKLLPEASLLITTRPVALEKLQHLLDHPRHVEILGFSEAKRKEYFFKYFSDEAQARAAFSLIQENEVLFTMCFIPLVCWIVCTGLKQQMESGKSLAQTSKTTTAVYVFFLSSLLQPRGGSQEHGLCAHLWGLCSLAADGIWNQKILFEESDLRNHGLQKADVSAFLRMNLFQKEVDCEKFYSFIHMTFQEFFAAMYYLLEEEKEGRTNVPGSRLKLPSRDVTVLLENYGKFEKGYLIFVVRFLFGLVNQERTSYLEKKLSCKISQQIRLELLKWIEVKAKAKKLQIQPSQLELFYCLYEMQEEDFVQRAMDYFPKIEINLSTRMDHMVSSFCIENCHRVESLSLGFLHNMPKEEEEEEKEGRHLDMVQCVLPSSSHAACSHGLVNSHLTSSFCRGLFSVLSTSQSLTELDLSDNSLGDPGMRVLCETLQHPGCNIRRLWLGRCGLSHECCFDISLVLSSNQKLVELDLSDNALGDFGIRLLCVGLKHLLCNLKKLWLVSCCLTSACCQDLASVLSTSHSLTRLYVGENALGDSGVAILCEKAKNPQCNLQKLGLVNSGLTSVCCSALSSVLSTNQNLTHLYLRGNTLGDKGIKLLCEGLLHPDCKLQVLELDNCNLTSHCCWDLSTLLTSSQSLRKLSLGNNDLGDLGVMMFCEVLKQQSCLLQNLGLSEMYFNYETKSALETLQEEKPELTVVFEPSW
protocol-summary: IL-1β assay in IFN-γ-differentiated, LPS-primed, ATP-activated THP-1 cells (ELISA)
condition-parameters: 50 ng/mL LPS priming, 2.5 mM ATP activation, 2 hours
pIC50: −log10 of the molar value.
Lab note: anything with pIC50 at or over 6 counts as True; the rest go in False.

>  <compound>
COc1ccc(-c2nnc(NC3CCCN(C)C3)c3ccncc23)cc1 (stereo not drawn)

>  <class-name>
True

$$$$
>  <compound>
CCN1CCc2c(NC3CCCN(C)C3)nnc(-c3ccc(Cl)cc3)c2C1 (stereo not drawn)

>  <class-name>
False

$$$$
>  <compound>
COc1ccc(-c2nnc(NCC(C)N3CCCC3)c3ccccc23)cc1 (stereo not drawn)

>  <class-name>
False

$$$$
>  <compound>
CN1CCCC(Nc2nnc(-c3ccc(C(C)(C)C)nc3)c3ccccc23)C1 (stereo not drawn)

>  <class-name>
True

$$$$
>  <compound>
COc1ccc(-c2nnc(NC3(CN4CCC4)CC3)c3ccccc23)cc1

>  <class-name>
False

$$$$
>  <compound>
F[C@H]1CNC[C@H](Nc2nnc(-c3ccc(Cl)cc3)c3cnccc23)C1

>  <class-name>
False

$$$$
>  <compound>
COc1ccc(-c2nnc(N[C@@H]3C[C@@H](F)CN(C)C3)c3c2CCOC3)c(C(F)(F)F)c1

>  <class-name>
True

$$$$
>  <compound>
Cc1ccc(-c2nnc(N[C@@H]3C[C@@H](F)CN(C)C3)c3c2COCC3)c(O)c1

>  <class-name>
True

$$$$
>  <compound>
Oc1cccc(Nc2nnc(-c3cccc(C4CCC4)c3)c3ccccc23)c1

>  <class-name>
False

$$$$
>  <compound>
FCCN1CCCC(Nc2nnc(-c3ccc(Cl)cc3)c3ccccc23)C1 (stereo not drawn)

>  <class-name>
True

$$$$
>  <compound>
CN1C[C@H](F)C[C@@H](Nc2nnc(-c3ccc(Cl)cc3O)c3c2COCC3)C1

>  <class-name>
True

$$$$
>  <compound>
CN1CCC[C@@H](Nc2nnc(-c3ccc(C(F)(F)F)cc3F)c3ccncc23)C1

>  <class-name>
True

$$$$
>  <compound>
CN1CC(Nc2nnc(-c3ccc(Cl)cc3)c3ccccc23)C(C)(C)C1 (stereo not drawn)

>  <class-name>
False

$$$$
>  <compound>
COc1ccc(-c2nnc(N[C@@H]3C[C@@H](F)CN(CC4CC4)C3)c3ccccc23)cc1

>  <class-name>
True

$$$$
>  <compound>
COc1ccc(-c2nnc(N[C@@H]3CCCN(C)C3)c3cnccc23)c(O)c1

>  <class-name>
True

$$$$
>  <compound>
CN1C[C@H](F)C[C@@H](Nc2nnc(-c3ccc(Cl)cc3O)c3c2CCOC3)C1

>  <class-name>
True

$$$$
>  <compound>
Clc1ccc(-c2nnc(NC3CCCN(C4CC4)C3)c3cnccc23)cc1 (stereo not drawn)

>  <class-name>
True

$$$$
>  <compound>
CN1CCC[C@@H](Nc2nnc(-c3ccc(Cl)cc3O)c3cnccc23)C1

>  <class-name>
True

$$$$
>  <compound>
CN1C[C@H](F)C[C@@H](Nc2nnc(-c3ccc(OC(F)(F)F)cc3O)c3c2COCC3)C1

>  <class-name>
True

$$$$
>  <compound>
COc1ccc(-c2nnc(NCC3(N4CCCC4)CC3)c3ccccc23)cc1

>  <class-name>
False

$$$$
